system: NHDF; test: Cytotoxicity against human HDF cells assessed as reduction in cell viability at 10 uM incubated for 24 hrs by MTT assay; format: toxicity, cell-based
measured.metric: Activity (%)
Numbers only, in %.

See these solved cases before continuing.
# smiles.representation, Activity / %
measured = [
    ("CCc1ccc(/C=C2\\C[C@]3(C)[C@H]4C(=O)C=C5[C@@H]6C[C@@](C)(C(=O)O)CC[C@]6(C)CC[C@@]5(C)[C@]4(C)CC[C@H]3C(C)(C)C2=O)cc1", 28.8),
    ("COc1ccc(/C=C2\\C[C@]3(C)[C@H]4C(=O)C=C5[C@@H]6C[C@@](C)(C(=O)O)CC[C@]6(C)CC[C@@]5(C)[C@]4(C)CC[C@H]3C(C)(C)C2=O)cc1", 11.5),
    ("CCOc1cccc(/C=C2\\C[C@]3(C)[C@H]4C(=O)C=C5[C@@H]6C[C@@](C)(C(=O)O)CC[C@]6(C)CC[C@@]5(C)[C@]4(C)CC[C@H]3C(C)(C)C2=O)c1", 35.7),
    ("COc1cc(Br)c(/C=C2\\C[C@]3(C)[C@H]4C(=O)C=C5[C@@H]6C[C@@](C)(C(=O)O)CC[C@]6(C)CC[C@@]5(C)[C@]4(C)CC[C@H]3C(C)(C)[C@H]2O)cc1O", 10.3),
]

Exam item: Sample COc1ccccc1/C=C1\C[C@]2(C)[C@H]3C(=O)C=C4[C@@H]5C[C@@](C)(C(=O)O)CC[C@]5(C)CC[C@@]4(C)[C@]3(C)CC[C@H]2C(C)(C)C1=O — what was its Activity?
Marked response: 5.9

###

test system: NHDF; experiment: Cytotoxicity against human HDF cells assessed as reduction in cell viability at 10 uM incubated for 24 hrs by MTT assay; format: toxicity, cell-based
Answer each item with its documented Activity.
Give bare numbers, in %.

# smiles.representation, unit.info, reported
records = [
    ("COc1ccc(/C=C2\\C[C@]3(C)[C@H]4C(=O)C=C5[C@@H]6C[C@@](C)(C(=O)O)CC[C@]6(C)CC[C@@]5(C)[C@]4(C)CC[C@H]3C(C)(C)C2=O)c(F)c1", "%", 19.1),
    ("CC1(C)C(=O)/C(=C/c2cccc(F)c2)C[C@]2(C)[C@H]3C(=O)C=C4[C@@H]5C[C@@](C)(C(=O)O)CC[C@]5(C)CC[C@@]4(C)[C@]3(C)CC[C@@H]12", "%", 6.5),
    ("COc1ccc(/C=C2\\C[C@]3(C)[C@H]4C(=O)C=C5[C@@H]6C[C@@](C)(C(=O)O)CC[C@]6(C)CC[C@@]5(C)[C@]4(C)CC[C@H]3C(C)(C)[C@H]2O)c(Br)c1O", "%", 20.2),
    ("CC1(C)[C@@H](O)/C(=C/c2ccncc2)C[C@]2(C)[C@H]3C(=O)C=C4[C@@H]5C[C@@](C)(C(=O)O)CC[C@]5(C)CC[C@@]4(C)[C@]3(C)CC[C@@H]12", "%", 3.2),
    ("CC1(C)C(=O)CC[C@]2(C)[C@H]3C(=O)C=C4[C@@H]5C[C@@](C)(C(=O)O)CC[C@]5(C)CC[C@@]4(C)[C@]3(C)CC[C@@H]12", "%", 5.2),
    ("CSc1ccc(/C=C2\\C[C@]3(C)[C@H]4C(=O)C=C5[C@@H]6C[C@@](C)(C(=O)O)CC[C@]6(C)CC[C@@]5(C)[C@]4(C)CC[C@H]3C(C)(C)C2=O)cc1", "%", 8.4),
]

Could you report Activity for every entry in the following list?
1. Cc1ccc(/C=C2\C[C@]3(C)[C@H]4C(=O)C=C5[C@@H]6C[C@@](C)(C(=O)O)CC[C@]6(C)CC[C@@]5(C)[C@]4(C)CC[C@H]3C(C)(C)C2=O)s1
2. CC1(C)C(=O)/C(=C/c2cccc3ccccc23)C[C@]2(C)[C@H]3C(=O)C=C4[C@@H]5C[C@@](C)(C(=O)O)CC[C@]5(C)CC[C@@]4(C)[C@]3(C)CC[C@@H]12
3. CC1(C)[C@@H](O)/C(=C/c2cccc(F)c2)C[C@]2(C)[C@H]3C(=O)C=C4[C@@H]5C[C@@](C)(C(=O)O)CC[C@]5(C)CC[C@@]4(C)[C@]3(C)CC[C@@H]12
4. COc1ccc(/C=C2\C[C@]3(C)[C@H]4C(=O)C=C5[C@@H]6C[C@@](C)(C(=O)O)CC[C@]6(C)CC[C@@]5(C)[C@]4(C)CC[C@H]3C(C)(C)C2=O)c(Br)c1O

Marked response:
[12.2, 11.5, 4.4, 10]

###

test system: NHDF; assay: Cytotoxicity against human HDF cells assessed as reduction in cell viability at 10 uM incubated for 24 hrs by MTT assay; type: toxicity, cell-based
Answer each item with its documented Activity.
Give bare numbers, in %.

Could you report Activity for every entry in the following list?
1. Cc1ccc(/C=C2\C[C@]3(C)[C@H]4C(=O)C=C5[C@@H]6C[C@@](C)(C(=O)O)CC[C@]6(C)CC[C@@]5(C)[C@]4(C)CC[C@H]3C(C)(C)C2=O)cc1
2. CC1(C)[C@@H](O)/C(=C/c2ccccc2)C[C@]2(C)[C@H]3C(=O)C=C4[C@@H]5C[C@@](C)(C(=O)O)CC[C@]5(C)CC[C@@]4(C)[C@]3(C)CC[C@@H]12

Marked response:
1: 30.5; 2: 7.4

###

tested on: NHDF; experiment: Cytotoxicity against human HDF cells assessed as reduction in cell viability at 10 uM incubated for 24 hrs by MTT assay; type: toxicity, cell-based
measured.metric: Activity (%)
Numbers only, in %.

# smiles.representation, Activity / %
rows = [
    ("CC1(C)C(=O)/C(=C/c2ccncc2)C[C@]2(C)[C@H]3C(=O)C=C4[C@@H]5C[C@@](C)(C(=O)O)CC[C@]5(C)CC[C@@]4(C)[C@]3(C)CC[C@@H]12", 8.3),
    ("CC1(C)C(=O)/C(=C/c2ccccc2)C[C@]2(C)[C@H]3C(=O)C=C4[C@@H]5C[C@@](C)(C(=O)O)CC[C@]5(C)CC[C@@]4(C)[C@]3(C)CC[C@@H]12", 11.5),
]

Exam item: Sample CC1(C)C(=O)/C(=C/c2ccc(Br)cc2)C[C@]2(C)[C@H]3C(=O)C=C4[C@@H]5C[C@@](C)(C(=O)O)CC[C@]5(C)CC[C@@]4(C)[C@]3(C)CC[C@@H]12 — what was its Activity?
Marked response: 17.5
